Tested on: KM12 colon
Assay info: NCI-60 one-dose screen, 48 h (100 = growth as untreated, 0 = no growth, -100 = all killed)
Test parameters: 10 µM unless noted
Experimental: Growth inhibition of the KM12 human tumor cell line is measured as a screen for anti-cancer activity. Cells are grown in 96 well plates and exposed to the test compound for 48 hours. Compounds are tested at a single concentration, which is 10^-5 M for most compounds. The reported endpoint is percent growth (GI% or GIPRCNT), where numbers from 0 - 100% represent growth inhibition, and numbers from -100% - 0 represent cell death. For example, a value of 40 represents 60% growth inhibition. […]
Compounds without any hit were thinned out: in the full panel of roughly 83,000, 20% have a hit.
Assay endpoint: growth (%)
Output spec: scalar in %, unitless text.

Compound	Assay endpoint	Unit text	Measured
CCCCCCCCCCCCNC(=O)N[C@H](C(=O)N[C@H]1/C=C/OCCNC(=O)/C=C/[C@H](C(C)C)NC1=O)C(C)C	growth	%	71.5
C=CCOC(=O)C1=C(C)NC2=C(C(=O)CCC2)C1c1ccc(F)cc1 (stereo not given)	growth	%	93.8
CCN(CC)c1ccc(/C=C2/NC(=O)NC2=O)cc1	growth	%	20.5
CCC(=O)NC1=C(Cl)C(=O)C(NC(=O)CC)=C(Cl)C1=O	growth	%	109
CN1C(=O)C(C(=O)/C=C/c2ccccc2C(=O)O)C(=O)N(C)C1=O	growth	%	104

Log: KM12 colon, compound CCOC(=O)c1cc(N)nc2ccccc12 , growth = 98.4

Log: KM12 colon, compound C[C@@H]1CC2C3CCC4=CC(=O)C=C[C@]4(C)[C@@]3(Cl)[C@@H](O)C[C@]2(C)[C@@]1(OC(=O)c1ccco1)C(=O)CCl (stereo not given in full) , growth = 76.9

Log: KM12 colon, compound O=C(Nc1ccc(Br)cc1)c1ccc(Cl)c(Cl)c1 , growth = 9.99

Log: KM12 colon, compound CC[C@H](C)[C@H](N)C(=O)O , growth = 99.5

Log: KM12 colon, compound N=C(N)c1ccc(NCCNc2ccc(C(=N)N)cc2)cc1 , growth = 105

----------
System: SW-620 colon
Assay info: NCI-60 one-dose screen, 48 h (100 = growth as untreated, 0 = no growth, -100 = all killed)
Test parameters: 10 µM unless noted
The panel holds about 83,000 compounds, 20% with a hit somewhere; the sample as a whole holds those more often.
Parameter threshold = 90%. Response is 1 (yes) when growth meets or exceeds it, else 0 (no).

Known results for compounds:
Compound	Label
COc1cc(/C=C\c2cc(/C=C\c3ccc(O)c(OC)c3)n(C(=O)Nc3ccc(C(F)(F)F)cc3)n2)ccc1O	0 (no)
COc1ccc(C(=O)C(CN(C)C)c2ccc(OC)cc2)cc1 (configuration not stated)	0 (no)
COc1ccc(C2c3cccn3-c3ccccc3N2C(C)=O)cc1 (configuration not stated)	0 (no)
O=C(Nc1ccc([N+](=O)[O-])cc1)c1cc2ccccc2cc1O	0 (no)
CCc1c(C)c2ccc(O)c(-c3cc(-c4ccccc4)c(C#N)c(=O)[nH]3)c2oc1=O	1 (yes)
O=C1C=CN2C(=O)CC=CC2[C@@H]1O (some centres not stated)	1 (yes)
NS(=O)(=O)c1ccc(CCn2c(SCC(=O)N/N=C/c3cc4ccccc4[nH]3)nc3ccccc3c2=O)cc1	0 (no)
O=C(c1ccccc1)c1cccc(C(Br)Br)c1	0 (no)
O=C(O)CSc1ccc(NCc2oc(CO)cc(=O)c2O)cc1	1 (yes)
O=C(/C=C/c1ccccc1)c1c[nH]c2ccccc2c1=O	0 (no)

Q: Determine whether measured growth meets or exceeds 90% for CCn1c(Cc2ccccc2Nc2c(Cl)cccc2Cl)nnc1SCC(=O)Nc1cccc(OC)c1
Result: 0 (no)
